Test system: Rattus norvegicus
Assay: Elimination half life in iv dosed Sprague-Dawley rat
Type: ADME, organism-based
Settings: in vivo
Value type: t1/2 (h)
Give bare numbers, in h.

Kindly note the recorded t1/2 for Cc1cc(C=C2C(=O)Nc3ccc(F)cc32)c2ccccc(OCCN3CCC[C@H]3CO)c1-2 (mixture of isomers) , which is 1.8

###

Molecular target: Receptor-type tyrosine-protein kinase FLT3 (Homo sapiens, UniProt P36888)
Sequence (P36888 whole entry): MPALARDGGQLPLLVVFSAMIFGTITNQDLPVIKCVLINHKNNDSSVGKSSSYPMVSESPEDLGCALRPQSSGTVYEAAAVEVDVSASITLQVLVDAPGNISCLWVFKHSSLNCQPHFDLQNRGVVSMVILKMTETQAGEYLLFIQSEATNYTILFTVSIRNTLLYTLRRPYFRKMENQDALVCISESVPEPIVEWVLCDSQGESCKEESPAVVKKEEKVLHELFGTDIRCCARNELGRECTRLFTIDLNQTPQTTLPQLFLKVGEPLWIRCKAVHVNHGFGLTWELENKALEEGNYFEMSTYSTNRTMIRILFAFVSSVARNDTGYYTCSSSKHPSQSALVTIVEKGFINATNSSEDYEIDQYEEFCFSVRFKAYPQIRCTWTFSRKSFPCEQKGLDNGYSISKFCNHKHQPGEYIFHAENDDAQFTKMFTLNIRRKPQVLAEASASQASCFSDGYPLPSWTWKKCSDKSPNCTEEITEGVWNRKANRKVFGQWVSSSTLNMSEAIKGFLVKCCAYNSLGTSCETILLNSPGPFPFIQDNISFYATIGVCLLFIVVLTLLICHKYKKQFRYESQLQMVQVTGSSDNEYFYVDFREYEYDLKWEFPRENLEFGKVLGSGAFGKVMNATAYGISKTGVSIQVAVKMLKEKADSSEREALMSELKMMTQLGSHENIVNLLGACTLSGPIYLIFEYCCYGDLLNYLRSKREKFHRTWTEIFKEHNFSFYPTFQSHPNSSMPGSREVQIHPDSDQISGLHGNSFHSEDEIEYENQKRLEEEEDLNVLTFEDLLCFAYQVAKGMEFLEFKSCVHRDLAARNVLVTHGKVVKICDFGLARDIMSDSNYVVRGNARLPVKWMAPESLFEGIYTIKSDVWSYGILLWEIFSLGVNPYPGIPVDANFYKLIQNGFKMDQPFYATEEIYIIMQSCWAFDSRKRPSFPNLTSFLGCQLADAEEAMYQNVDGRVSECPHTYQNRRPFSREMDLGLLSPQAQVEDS
Experiment: Inhibition of FLT3 autophosphorylation in human RS4-11 cells by Western blot analysis
Assay type: cell-based
Value type: pIC50
Give bare numbers, as −log10 of the molar value.

The reported pIC50 value, Receptor-type tyrosine-protein kinase FLT3 (Homo sapiens, UniProt P36888), for Cc1cc(C=C2C(=O)Nc3ccc(F)cc32)c2ccccc(OCCN3CCC[C@H]3CO)c1-2 (mixture of isomers) reads 7.15

###

Test: AUC in iv dosed Sprague-Dawley rat
Format: ADME, organism-based
Settings: plasma
Value type: AUC (ng·h/mL)
Give bare numbers, in ng·h/mL.

The reported value for Cc1cc(C=C2C(=O)Nc3ccc(F)cc32)c2ccccc(OCCN3CCC[C@H]3CO)c1-2 (mixture of isomers) in terms of AUC is 1410

###

Experiment: Oral bioavailability in Sprague-Dawley rat
Format: ADME, organism-based
Conditions: in vivo
Value type: bioavailability

The recorded bioavailability for Cc1cc(C=C2C(=O)Nc3ccc(F)cc32)c2ccccc(OCCN3CCC[C@H]3CO)c1-2 (mixture of isomers) is 22.8%

###

Target: Receptor-type tyrosine-protein kinase FLT3 (Homo sapiens, UniProt P36888)
Sequence (P36888 whole entry): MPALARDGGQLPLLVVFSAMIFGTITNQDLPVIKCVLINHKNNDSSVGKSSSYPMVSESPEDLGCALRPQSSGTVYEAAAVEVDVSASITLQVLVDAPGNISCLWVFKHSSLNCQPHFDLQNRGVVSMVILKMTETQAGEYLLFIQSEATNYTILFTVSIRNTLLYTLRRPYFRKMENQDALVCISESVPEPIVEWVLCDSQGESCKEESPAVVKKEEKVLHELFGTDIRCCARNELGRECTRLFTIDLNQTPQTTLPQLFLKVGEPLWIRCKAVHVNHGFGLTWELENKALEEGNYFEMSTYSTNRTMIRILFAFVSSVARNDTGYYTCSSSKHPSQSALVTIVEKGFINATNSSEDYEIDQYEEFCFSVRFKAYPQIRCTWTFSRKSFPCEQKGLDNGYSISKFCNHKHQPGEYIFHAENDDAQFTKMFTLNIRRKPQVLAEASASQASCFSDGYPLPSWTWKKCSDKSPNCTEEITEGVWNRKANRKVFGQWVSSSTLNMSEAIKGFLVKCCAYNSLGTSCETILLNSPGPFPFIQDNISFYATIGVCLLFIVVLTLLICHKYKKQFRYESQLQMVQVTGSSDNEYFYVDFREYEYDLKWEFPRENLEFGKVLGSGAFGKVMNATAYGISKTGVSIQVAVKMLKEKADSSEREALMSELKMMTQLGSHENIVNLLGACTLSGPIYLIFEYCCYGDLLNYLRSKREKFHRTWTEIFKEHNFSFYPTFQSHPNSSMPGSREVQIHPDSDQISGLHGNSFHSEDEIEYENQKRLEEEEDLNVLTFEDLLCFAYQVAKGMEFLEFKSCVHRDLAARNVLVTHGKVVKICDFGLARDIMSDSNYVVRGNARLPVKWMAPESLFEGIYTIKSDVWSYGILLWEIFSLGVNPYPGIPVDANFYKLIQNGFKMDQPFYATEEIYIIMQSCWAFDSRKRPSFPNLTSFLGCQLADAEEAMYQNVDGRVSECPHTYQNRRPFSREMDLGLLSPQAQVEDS
Experiment: Inhibition of FLT3 by time resolved fluorescence method
Kindly supply the reported IC50 values for the records listed here.
Answers are plain numbers, in nM.

{"columns": ["Molecule", "Units text", "IC50"],
 "data": [
  ["O=C1Nc2ccc(F)cc2/C1=C/c1cc(F)c2cccccc1-2", "nM", 23],
  ["Cc1cc(/C=C2/C(=O)Nc3ccc(F)cc32)c2ccccc(OCCCN(C)C)c1-2", "nM", 25],
  ["Cc1cc(C=C2C(=O)Nc3ccc(F)cc32)c2ccccc(OCCN3CCC[C@H]3CO)c1-2 (mixture of isomers)", "nM", 98],
  ["CCN(CC)CCCOc1ccccc2c(/C=C3\\C(=O)Nc4ccc(F)c(F)c43)cc(C)c1-2", "nM", 14],
  ["Cc1cc(/C=C2\\C(=O)Nc3ccc(F)cc32)c2cccccc1-2", "nM", 128],
  ["Cc1cc(/C=C2\\C(=O)Nc3ccc(F)c(F)c32)c2ccccc(OCCCN(C)C)c1-2", "nM", 5]
]}

Would you mind listing IC50 for each of the following molecules?
1. Cc1cc(/C=C2\C(=O)Nc3ncccc32)c2ccccc(OCCCN(C)C)c1-2
2. Cc1cc(/C=C2/C(=O)Nc3c(F)cccc32)c2ccccc(OCCCN(C)C)c1-2
3. Cc1cc(/C=C2/C(=O)Nc3cc(F)ccc32)c2ccccc(OCCCN(C)C)c1-2

1460
177
742

###

Experiment: AUC in po dosed Sprague-Dawley rat
Assay type: ADME, organism-based
Settings: plasma
Value type: AUC (ng·h/mL)
Give bare numbers, in ng·h/mL.

The reported AUC of the molecule Cc1cc(C=C2C(=O)Nc3ccc(F)cc32)c2ccccc(OCCN3CCC[C@H]3CO)c1-2 (mixture of isomers) was 3220

###

Molecular target: Vascular endothelial growth factor receptor 2 (Homo sapiens)
Sequence (P35968 whole entry): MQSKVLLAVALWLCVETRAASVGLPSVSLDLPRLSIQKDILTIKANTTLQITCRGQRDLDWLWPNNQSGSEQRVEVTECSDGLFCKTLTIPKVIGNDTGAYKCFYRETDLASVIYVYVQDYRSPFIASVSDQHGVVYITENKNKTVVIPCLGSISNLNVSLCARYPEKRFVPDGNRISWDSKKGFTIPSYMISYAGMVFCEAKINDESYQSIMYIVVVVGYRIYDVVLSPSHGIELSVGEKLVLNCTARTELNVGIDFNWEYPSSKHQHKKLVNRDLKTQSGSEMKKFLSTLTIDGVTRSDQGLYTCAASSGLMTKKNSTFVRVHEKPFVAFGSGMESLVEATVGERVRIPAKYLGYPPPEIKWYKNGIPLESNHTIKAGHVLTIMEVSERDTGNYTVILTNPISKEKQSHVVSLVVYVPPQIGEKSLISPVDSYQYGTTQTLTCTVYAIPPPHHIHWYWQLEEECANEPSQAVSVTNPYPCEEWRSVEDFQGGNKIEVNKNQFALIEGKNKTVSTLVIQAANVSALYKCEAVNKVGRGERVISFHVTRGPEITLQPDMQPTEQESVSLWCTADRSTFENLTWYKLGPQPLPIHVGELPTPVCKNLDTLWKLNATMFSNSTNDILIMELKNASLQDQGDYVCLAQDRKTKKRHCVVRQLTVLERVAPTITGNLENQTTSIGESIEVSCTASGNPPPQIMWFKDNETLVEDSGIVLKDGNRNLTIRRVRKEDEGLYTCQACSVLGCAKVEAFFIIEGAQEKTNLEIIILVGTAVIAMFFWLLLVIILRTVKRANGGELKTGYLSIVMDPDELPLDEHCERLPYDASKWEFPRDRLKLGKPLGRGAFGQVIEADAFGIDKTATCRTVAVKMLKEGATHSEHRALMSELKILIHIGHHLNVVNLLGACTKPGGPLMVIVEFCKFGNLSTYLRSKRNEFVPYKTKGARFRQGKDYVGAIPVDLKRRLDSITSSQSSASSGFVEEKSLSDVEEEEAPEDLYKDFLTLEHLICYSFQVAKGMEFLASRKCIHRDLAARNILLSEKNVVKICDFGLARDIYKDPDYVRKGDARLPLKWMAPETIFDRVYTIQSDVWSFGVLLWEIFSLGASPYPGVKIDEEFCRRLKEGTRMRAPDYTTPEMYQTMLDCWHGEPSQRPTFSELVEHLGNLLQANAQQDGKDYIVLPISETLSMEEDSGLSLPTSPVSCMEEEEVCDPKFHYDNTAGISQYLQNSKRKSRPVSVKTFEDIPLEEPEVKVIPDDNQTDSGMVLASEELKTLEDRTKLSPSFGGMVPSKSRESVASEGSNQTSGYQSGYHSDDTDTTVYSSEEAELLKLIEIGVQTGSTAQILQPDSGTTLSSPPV
Experiment: Inhibition of KDR autophosphorylation in HUVEC by Western blot analysis
Value type: IC50 (nM)
Give bare numbers, in nM.

Item: Cc1cc(C=C2C(=O)Nc3ccc(F)cc32)c2ccccc(OCCN3CCC[C@H]3CO)c1-2 (mixture of isomers) | IC50: 186

###

What pIC50 was measured for each of the following?
Molecular target: Receptor-type tyrosine-protein kinase FLT3 (Homo sapiens, UniProt P36888)
Test: Inhibition of FLT3 by time resolved fluorescence method
Answers are plain numbers, as −log10 of the molar value.

As a guide, the following entries are already answered.
{"columns": ["Smiles input", "System name", "Readout number"],
 "data": [
  ["O=C1Nc2ccccc2C1=Cc1ccc2cccccc1-2", "Receptor-type tyrosine-protein kinase FLT3 (Homo sapiens, UniProt P36888)", 6.33],
  ["Cc1cc(/C=C2\\C(=O)Nc3ccc(F)cc32)c2ccccc(OCCCN(C)C)c1-2", "Receptor-type tyrosine-protein kinase FLT3 (Homo sapiens, UniProt P36888)", 7.92],
  ["Cc1cc(/C=C2\\C(=O)Nc3ncc(Br)cc32)c2ccccc(OCCCN3CCOCC3)c1-2", "Receptor-type tyrosine-protein kinase FLT3 (Homo sapiens, UniProt P36888)", 7.07]
]}

// below: pIC50 requested for another compound
Measured pIC50 of `Cc1cc(/C=C2\C(=O)Nc3ccc(F)c(F)c32)c2ccccc(OCCCN3CCCCC3)c1-2` : 7.77
